Source of measurements: patent US7268216B2

test: Fluorescent biotin dissociation assay; assay type: binding; details: 50° C.
molecules and their reported Release 1 h (total release of the probe)
Your answer should be a plain number; it is taken to be in %.

molecule: AVR4/5(C122S): AVR4/5 with the cysteine forming intermonomeric disulphide bridges mutated to serine; insect cell produced (protein, UniProt P56734 25-150, looked up, variant C122S) Avidin-related protein 4/5: ARKCSLTGKWTNNLGSIMTIRAVNSRGEFTGTYLTAVADNPGNITLSPLLGIQHKRASQPTFGFTVHWNFSESTTVFTGQCFIDRNGKEVLKTMWLLRSSVNDISYDWKATRVGYNNFTRLSTVEE
Release 1 h (total release of the probe) [%]: 93.7
//
molecule: AVR4/5(C122S)-b: AVR4/5(C122S) produced in E. coli, non-glycosylated, three additional N-terminal residues (Gln-Thr-Val) (protein, UniProt P56734 25-150, looked up, variant C122S, N-terminal Gln-Thr-Val extension) Avidin-related protein 4/5: ARKCSLTGKWTNNLGSIMTIRAVNSRGEFTGTYLTAVADNPGNITLSPLLGIQHKRASQPTFGFTVHWNFSESTTVFTGQCFIDRNGKEVLKTMWLLRSSVNDISYDWKATRVGYNNFTRLSTVEE
Release 1 h (total release of the probe) [%]: 88.3
//
molecule: ChiAVD: Chimeric avidin: residues 38-58 moved from AVR4/5 to avidin (SEQ ID NO:15) (protein, listed as Gallus gallus) MVHATSPLLLLLLLSLALVAPGLSARKCSLTGKWTNDLGSNMTIGAVNSRGEFTGTYITAVADNPGNITLSPLLGIQHKRASQPTFGFTVNWKFSESTTVFTGQCFIDRNGKEVLKTMWLLRSSVNDIGDDWKATRVGINIFTRLRTQKE
Release 1 h (total release of the probe) [%]: 93.9

Please turn your attention to the following entry.
The reported value for ChiAVD(I117Y): Residues 38-58 moved from AVR4/5 to avidin and mutation I117Y in 1-3 subunit interface (SEQ ID NO:16) (protein, listed as Gallus gallus) MVHATSPLLLLLLLSLALVAPGLSARKCSLTGKWTNDLGSNMTIGAVNSRGEFTGTYITAVADNPGNITLSPLLGIQHKRASQPTFGFTVNWKFSESTTVFTGQCFIDRNGKEVLKTMWLLRSSVNDIGDDWKATRVGYNIFTRLRTQKE in terms of Release 1 h (total release of the probe) is 94.8
